Entry source: patent US20260042755A1

Target: GPR3 (Homo sapiens)
Construct: expressed in transfected cells; host or cells: CHO cells
Sequence (P46089 whole entry, species assumed): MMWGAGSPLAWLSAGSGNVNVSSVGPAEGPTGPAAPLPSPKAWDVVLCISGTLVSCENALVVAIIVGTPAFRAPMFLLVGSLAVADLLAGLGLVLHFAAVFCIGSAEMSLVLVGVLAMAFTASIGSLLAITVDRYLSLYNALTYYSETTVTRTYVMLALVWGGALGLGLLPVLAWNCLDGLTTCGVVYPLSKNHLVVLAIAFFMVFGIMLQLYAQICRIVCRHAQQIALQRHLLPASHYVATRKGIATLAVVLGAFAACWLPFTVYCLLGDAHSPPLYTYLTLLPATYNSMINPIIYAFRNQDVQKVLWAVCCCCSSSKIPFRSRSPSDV
Assay: GPR3 antagonist functional cAMP assay (LANCE Ultra cAMP TR-FRET, CHO cells stably expressing GPR3)
Type: cell-based
Details: CHO cells stably expressing GPR3, cAMP assay
Measured quantity: IC50

| Compound | System name | Measured value |
| --- | --- | --- |
| CC(=O)N1CCc2nc(N3CCN(Cc4ccc(=O)n(C)c4)CC3)c(-c3cnn(C)c3)nc2C1 [Compound 535] | GPR3 (Homo sapiens) | ≥ 30 µM |
| CC(C)(O)C(O)c1cc2nc(-c3cnn(C4CC4)c3)c(N3CCN(Cc4ccc(F)cc4F)CC3)nc2cn1 (single isomer, unassigned) [Compound 600] | GPR3 (Homo sapiens) | 0.1 to 1 µM |
| COc1cc(F)c(OC2CCN(c3nc4c(nc3-c3cnn(C)c3)CN(C(C)=O)CC4)CC2)cc1Cl [Compound 503] | GPR3 (Homo sapiens) | 1 to 30 µM |
| CC(=O)N1Cc2nc(-c3cnn(C)c3)c(N3CCC(Oc4ccc(F)cc4F)CC3)nc2CC1CO (stereo not shown) [Compound 490] | GPR3 (Homo sapiens) | 1 to 30 µM |
| CC(C)(O)C(=O)c1cc2nc(N3CCN(Cc4ccc(F)cc4F)CC3)c(-c3cnn(C(F)F)c3)nc2cn1 [Compound 566] | GPR3 (Homo sapiens) | 1 to 30 µM |
| CC(=O)N1CCc2nc(N3CCN(Cc4cccnc4)CC3)c(-c3cnn(C)c3)nc2C1 [Compound 517] | GPR3 (Homo sapiens) | ≥ 30 µM |

API: the following record is the query input.
Quick one: IC50 of Cn1cc(-c2nc3ccc(C(O)C(C)(C)O)nc3nc2N2CCC(Oc3ccc(F)cc3F)CC2)cn1 (stereo not shown) [Compound 587] ?
1 to 30 µM

###

# key: entry, value: pIC50
Target: GPR6 (Homo sapiens)
Construct: expressed in transfected cells; host or cells: CHO cells
Sequence (P46095 whole entry): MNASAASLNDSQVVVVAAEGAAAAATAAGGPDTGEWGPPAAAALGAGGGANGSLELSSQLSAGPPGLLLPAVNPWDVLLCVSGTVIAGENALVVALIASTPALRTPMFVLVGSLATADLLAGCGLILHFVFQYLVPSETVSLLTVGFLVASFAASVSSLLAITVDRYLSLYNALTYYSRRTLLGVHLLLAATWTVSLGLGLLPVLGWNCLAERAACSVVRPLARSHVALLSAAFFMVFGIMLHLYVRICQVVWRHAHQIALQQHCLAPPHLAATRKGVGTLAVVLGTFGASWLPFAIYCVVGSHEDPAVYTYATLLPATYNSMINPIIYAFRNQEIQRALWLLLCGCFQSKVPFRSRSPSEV
Assay: GPR6 antagonist functional cAMP assay (LANCE Ultra cAMP TR-FRET, CHO cells stably expressing GPR6)
Format: cell-based
Settings: procedure of Example 24
pIC50: −log10 of the molar value.

| Compound | System name | Measured value |
| --- | --- | --- |
| CC(C)(O)C(O)c1ncc2nc(-c3cnn(CF)c3)c(N3CCN(Cc4ccc(F)cc4F)CC3)nc2c1F (racemic) [Compound 797] | GPR6 (Homo sapiens) | 6.00 to 7.00 |
| CC(C)(O)C(C)(O)c1cc2nc(-c3cnn(C(F)F)c3)c(N3CCN(Cc4ccc(F)cc4F)CC3)nc2cn1 (centres unmarked) [Compound 633] | GPR6 (Homo sapiens) | > 7.00 |
| CC(C)(O)[C@H](O)c1cc2nc(N3CCN(Cc4ccccc4F)CC3)c(-c3cnn(CF)c3)nc2cn1 (single isomer, unassigned) [Compound 648] | GPR6 (Homo sapiens) | 6.00 to 7.00 |

API: the following record is the query input.
Quick one: pIC50 of CC(C)(O)[C@@](C)(O)c1cc2nc(-c3cnn(C4CC4)c3)c(N3CCN(Cc4ccc(F)cc4F)CC3)nc2cn1 (single isomer, unassigned) [Compound 682] ?
> 7.00

###

Target: GPR6 (Homo sapiens)
Construct: expressed in transfected cells; host or cells: CHO cells
Assay: GPR6 antagonist functional cAMP assay (LANCE Ultra cAMP TR-FRET, CHO cells stably expressing GPR6)
Type: cell-based
Conditions: CHO cells stably expressing GPR6, cAMP assay (Example 24)
Measured quantity: IC50

| Compound | IC50 |
| --- | --- |
| Cn1cc(-c2nc3cnc([C@H](O)C(C)(C)O)cc3nc2N2CCN(Cc3ccc(F)cc3F)CC2)cn1 (single isomer, unassigned) [Compound 262] | 100 to 1000 nM |
| OCCN1CCc2nc(N3CCC(Oc4ccc(F)cc4F)CC3)c(-c3cn[nH]c3)nc2C1 [Compound 141] | 1000 to 30000 nM |
| CC(=O)N1CCc2nc(N3CCC(Oc4ccc(F)cc4F)CC3)c(-c3cnn(C4CN(C)C4)c3)nc2C1 [Compound 212] | 1000 to 30000 nM |
| CC(=O)N1CCc2nc(N3CCC(Oc4ccc(F)cc4F)CC3)c(-c3cn[nH]c3C3CC3)nc2C1 [Compound 62] | 1000 to 30000 nM |
| CC(=O)N1CCc2nc(N3CC(Oc4ccc(F)cc4F)C3)c(-c3cnn(C)c3)nc2C1 [Compound 398] | 1000 to 30000 nM |

Quick one: IC50 of CC(=O)N1CCc2nc(N3CCN(Cc4cccc(F)c4)CC3)c(-c3cnn(C)c3)nc2C1 [Compound 256] ?
1000 to 30000 nM

Quick one: IC50 of Clc1ccc(Cl)c(CN2CCN(c3nc4cnccc4nc3-c3ncc[nH]3)CC2)c1 [Compound 64] ?
100 to 1000 nM
